The measured values listed here are drawn from patent US20250026849A1.

# experimental target: T1, CD123 (Homo sapiens (Human), UniProt P26951 19-305, limits assumed)
# T1 construct: also called CD123-Signal
# T1 sequence: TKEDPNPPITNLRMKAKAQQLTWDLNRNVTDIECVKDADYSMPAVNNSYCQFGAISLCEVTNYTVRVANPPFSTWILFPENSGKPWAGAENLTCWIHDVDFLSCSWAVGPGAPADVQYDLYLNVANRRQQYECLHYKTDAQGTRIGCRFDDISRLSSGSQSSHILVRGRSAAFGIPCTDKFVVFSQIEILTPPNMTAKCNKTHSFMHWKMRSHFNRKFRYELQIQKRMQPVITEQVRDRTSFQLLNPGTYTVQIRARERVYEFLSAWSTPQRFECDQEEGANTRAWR
# assay text: ELISA, format not described
# Design: unit not given here
measured endpoint: ELISA_avg
Give bare numbers.

Could I get ELISA_avg for every one of these entries?
1. D domain SEQ ID NO: 688 (designed binder) MGSWEEFDERLWAISDRLWALGGSEAELAYFEGEIAYFEQNLQTYKGKGNPEVEALQTEALAIDTELWAYRHN
2. D domain SEQ ID NO: 692 (designed binder) MGSWDEFDTRLDAIFSRLYALGGSEAELAMFEGEIAEFEGSLQHYKGKGNPEVEALDFEAHAIDEELWAYRHN
3. D domain SEQ ID NO: 726 (designed binder) MGSWVEFEYRLDAITERLLALGGSEAELAAFEKEIAAFESELQAYKGKGNPEVEILREEAAFIRQWLQAYRHN

Response line:
[6.5, 4, 3.9]
